Give phosphorylation enrichment for every item shown.
target: Jak2 (UniProt O60674); experiment: phosphorylation enrichment, bacterial display (enrichment ratio); higher = better substrate or ligand; peptides without Tyr show the background;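 note: 11-residue human phosphosite peptides and single-mutation variants displayed on the E. coli surface, counted by deep sequencing, each peptide's frequency after selection divided by its frequency in the unselected input library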;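 note: frequency after pTyr selection over input frequency; kinase dosed for 20-30% of maximal phosphorylation in three min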
Sequence (O60674 whole entry, looked up): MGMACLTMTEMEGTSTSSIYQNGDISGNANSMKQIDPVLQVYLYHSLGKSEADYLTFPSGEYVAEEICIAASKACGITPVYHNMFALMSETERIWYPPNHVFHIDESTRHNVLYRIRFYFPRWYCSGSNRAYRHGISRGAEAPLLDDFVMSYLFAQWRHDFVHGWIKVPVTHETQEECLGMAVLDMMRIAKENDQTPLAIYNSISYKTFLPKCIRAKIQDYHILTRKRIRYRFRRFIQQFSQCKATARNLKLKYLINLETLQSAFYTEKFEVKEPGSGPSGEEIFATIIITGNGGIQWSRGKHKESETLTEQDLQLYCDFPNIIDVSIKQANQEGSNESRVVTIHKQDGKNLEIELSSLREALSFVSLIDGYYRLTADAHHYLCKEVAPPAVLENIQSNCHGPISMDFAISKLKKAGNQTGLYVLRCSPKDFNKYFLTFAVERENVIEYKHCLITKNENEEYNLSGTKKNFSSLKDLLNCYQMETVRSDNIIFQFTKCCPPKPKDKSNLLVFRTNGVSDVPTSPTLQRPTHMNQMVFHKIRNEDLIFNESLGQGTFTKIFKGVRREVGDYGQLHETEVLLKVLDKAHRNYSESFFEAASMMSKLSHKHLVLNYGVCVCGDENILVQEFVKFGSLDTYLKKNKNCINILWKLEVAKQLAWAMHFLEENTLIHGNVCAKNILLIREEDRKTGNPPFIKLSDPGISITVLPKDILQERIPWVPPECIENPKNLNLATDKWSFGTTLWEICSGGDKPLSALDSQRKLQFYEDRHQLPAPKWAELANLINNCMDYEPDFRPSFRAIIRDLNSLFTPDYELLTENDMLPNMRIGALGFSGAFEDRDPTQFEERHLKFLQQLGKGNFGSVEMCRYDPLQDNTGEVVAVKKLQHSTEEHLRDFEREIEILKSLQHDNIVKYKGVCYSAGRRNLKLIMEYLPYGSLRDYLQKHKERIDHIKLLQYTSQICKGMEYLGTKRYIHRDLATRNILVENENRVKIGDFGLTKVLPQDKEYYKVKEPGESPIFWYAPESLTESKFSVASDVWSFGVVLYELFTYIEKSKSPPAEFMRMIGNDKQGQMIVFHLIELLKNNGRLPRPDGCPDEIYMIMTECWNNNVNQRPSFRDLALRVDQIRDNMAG

Kindly give each listed record's phosphorylation enrichment.
1. RGKDSYETSQL [SPP1_Y225]
2. RPSRQYATLDV [SCAMP3_Y35]

Output line:
1: 0.643; 2: 0.42

* * *

target: FGFR3 (UniProt P22607); assay: phosphorylation enrichment, bacterial display (enrichment ratio); higher = better substrate or ligand; peptides without Tyr show the background
Sequence (P22607 whole entry, looked up): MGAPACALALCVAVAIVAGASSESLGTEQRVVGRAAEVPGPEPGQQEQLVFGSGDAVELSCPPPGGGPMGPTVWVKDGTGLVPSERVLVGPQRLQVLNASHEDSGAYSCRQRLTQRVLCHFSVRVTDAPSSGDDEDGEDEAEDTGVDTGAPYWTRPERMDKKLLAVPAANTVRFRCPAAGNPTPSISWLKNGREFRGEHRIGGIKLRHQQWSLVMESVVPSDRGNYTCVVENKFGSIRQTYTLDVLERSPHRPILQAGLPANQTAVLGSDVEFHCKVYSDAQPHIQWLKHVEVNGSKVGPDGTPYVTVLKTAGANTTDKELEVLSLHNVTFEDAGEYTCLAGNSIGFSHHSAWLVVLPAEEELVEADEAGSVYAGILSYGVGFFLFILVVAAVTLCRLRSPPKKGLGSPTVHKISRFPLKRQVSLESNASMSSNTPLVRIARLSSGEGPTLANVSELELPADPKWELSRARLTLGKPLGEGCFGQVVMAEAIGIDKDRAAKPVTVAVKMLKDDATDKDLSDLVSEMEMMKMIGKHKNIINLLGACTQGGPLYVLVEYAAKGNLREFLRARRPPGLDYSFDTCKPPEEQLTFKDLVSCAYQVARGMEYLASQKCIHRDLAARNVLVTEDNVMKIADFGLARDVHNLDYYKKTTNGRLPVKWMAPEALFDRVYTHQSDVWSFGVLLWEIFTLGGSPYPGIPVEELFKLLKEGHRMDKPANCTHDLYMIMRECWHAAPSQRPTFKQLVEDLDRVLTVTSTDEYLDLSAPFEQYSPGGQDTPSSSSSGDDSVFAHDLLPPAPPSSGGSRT
just bin them by phosphorylation enrichment: low class = under 0.6, middle class = from 0.6 up to 1, high class = 1 and over

Some entries whose results are on file:
[
  {
    "construct sequence": "TVLEPYTDPFF [ZC3H18_Y367_A368T_YF]",
    "label": "middle class"
  },
  {
    "construct sequence": "ATDLAYYLVRE [ASL_Y375_K380E]",
    "label": "high class"
  },
  {
    "construct sequence": "LMQAEYWHDPI [PPT1_Y185_V181M]",
    "label": "high class"
  },
  {
    "construct sequence": "PLDNLYAEPAV [PRPS1_Y146_V142L]",
    "label": "high class"
  },
  {
    "construct sequence": "ENGPYYASYPP [GDAP2_Y488_T489A]",
    "label": "high class"
  }
]

Input line: Any idea which band HLVSEYQQFQD [TUBB3_Y422_D417H_YF] is in?
Output line: low class

Input line: Any idea which band YRTGHYLCNAC [GATA1_Y223_D218Y] is in?
Output line: low class

Input line: Any idea which band KKMKCYHVGKV [HARS2_Y151_R150C] is in?
Output line: low class

Input line: Any idea which band RMLRKYQELMS [KRT74_Y425_E424K] is in?
Output line: low class

Input line: Any idea which band MSRDVYSTDCF [NTRK2_Y702_Y706C_YF] is in?
Output line: middle class

Input line: Any idea which band DVSVVCSEVKT [FCRL4_Y493_Y493C] is in?
Output line: middle class

Recorded values, source the supplement of paper PMC10065799.
